Recorded values, source the supplement of paper PMC5908809.

# Tested on: YT (IL-2 2.5 ng/mL)
# methodSummary: percent inhibition of viability; higher = more inhibition;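 further: normalised to DMSO-only wells as negative and benzethonium chloride as positive control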
# testConditions: 72 h; 10 nM
assayMetric: percent inhibition of viability (%)
Your answer should be a plain number; it is taken to be in %.

Worked examples follow.
molecule	testedOn	percent inhibition of viability, %
Cc1cc(Nc2cc(CN3CCOCC3)c3nc(C)c(Cc4ccc(Cl)cc4F)n3n2)n[nH]1 [Gandotinib] (max concentration tested 10000 nM)	YT (IL-2 2.5 ng/mL)	-0.29
Cn1cc(C2=Nc3cc(NC(=O)C(N)C4CCCCC4)cc4c3C2=CNNC4=O)cn1 (stereo not drawn) (max concentration tested 10000 nM)	YT (IL-2 2.5 ng/mL)	1.74

The record that follows has no percent inhibition of viability shown yet.
Query: Given the molecule CNC(=O)c1cc(Oc2ccc(NC(=O)Nc3cc(C(C)(C)C)nn3-c3ccc4ncccc4c3)c(F)c2)ccn1 [Rebastinib] (max concentration tested 1000 nM) , what is its reported percent inhibition of viability?
Result: -0.26
